Data provenance: patent US20230212554A1

So I've got a bunch of binders here, and I need their EC50 values.
# MEASUREMENT_TARGET: NP of A/California/07/2009(H1N1/H1S) (influenza A virus, NYMC X-181 derived …)
# Sequence (P03466 whole entry): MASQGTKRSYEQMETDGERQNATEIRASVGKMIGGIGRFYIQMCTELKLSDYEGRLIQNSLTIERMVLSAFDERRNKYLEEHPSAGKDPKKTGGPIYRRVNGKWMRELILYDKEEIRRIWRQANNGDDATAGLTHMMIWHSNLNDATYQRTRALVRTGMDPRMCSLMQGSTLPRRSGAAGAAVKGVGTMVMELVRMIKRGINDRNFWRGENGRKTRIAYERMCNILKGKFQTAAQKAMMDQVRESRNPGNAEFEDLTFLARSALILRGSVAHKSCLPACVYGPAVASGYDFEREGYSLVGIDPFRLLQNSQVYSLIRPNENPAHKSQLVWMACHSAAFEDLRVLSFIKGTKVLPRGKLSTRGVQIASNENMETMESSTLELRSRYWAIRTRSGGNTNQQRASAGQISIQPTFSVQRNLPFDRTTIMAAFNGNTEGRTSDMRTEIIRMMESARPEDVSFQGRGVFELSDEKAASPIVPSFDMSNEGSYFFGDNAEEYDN
# EXPERIMENT: sandwich ELISA, capture IgG; NP of lysed virus titrated; HRP-NP17 detection
Respond numerically; units are nM and should not be typed.

Asked: // returns reported EC50 for input NP17 (antibody, V domains shown) VH: EVQLVESGGGLVQPGGSLRLSCAASGFTISGGSIHWVRQAPGKGLEWVASIWPFGGSTFYADSVKGRFTISADTSKNTAYLQMNSLRAEDTAVYYCARFGHGHNVIMDYWGQGTLVTVSS VL: DIQMTQSPSSLSASVGDRVTITCRASQDVGYSVAWYQQKPGKAPKLLISSPGGLYSGVPSRFSGSGSGTDFTLTISSLQPEDFATYYCQQYYDYPVTFGQGTKVEIKR
Given back: 1.02

Asked: // returns reported EC50 for input NP7 (antibody, V domains shown) VH: EVQLVESGGGLVQPGGSLRLSCAASGFTISNGGIHWVRQAPGKGLEWVAGIGPYGGFTSYADSVKGRFTISADTSKNTAYLQMNSLRAEDTAVYYCARFYSNYYGYHGVMDYWGQGTLVTVSS VL: DIQMTQSPSSLSASVGDRVTITCRASQDVFGWVAWYQQKPGKAPKLLISYSASLYSGVPSRFSGSGSGTDFTLTISSLQPEDFATYYCQQYFNYPLTFGQGTKVEIKR
Given back: 0.9

Asked: // returns reported EC50 for input NP5 (antibody, V domains shown) VH: EVQLVESGGGLVQPGGSLRLSCAASGFTISNGSIHWVRQAPGKGLEWVAGIWPSGGSTSYADSVKGRFTISADTINNSAYLQMNSLRAEDTAVYYCARWNYWGQGTLVTVSS VL: DIQMTQSPSSLSASVGDRVTITCRASQDVGWSVAWYQQKPGKAPKLLIYGSRWLYSGVPSRFSGSGSGTDFTLTISSLQPEDFATYYCQQGYNGPLTFGQGTKVEIKR
Given back: 0.918
